- ASSAY_SUMMARY: Host-cell metabolic activity in Huh 9-13 cells
- Type: cell-based
- EXPERIMENTAL_CONTEXT: human, supplement dose-response data
Please respond with reported CC50 for every item in the list.

Look up CC50 for the entries below, preserving their order.
1. O=c1oc2ccc(Cl)cc2cc1CSc1ncnc2c1ncn2[C@@H]1O[C@H](CO)[C@@H](O)[C@H]1O
2. O=c1oc2ccc(Cl)cc2cc1CSc1ncnc2[nH]cnc12
3. O=c1ccnc(SCc2cc3cc(Cl)ccc3oc2=O)[nH]1

Reply:
1. > 50 µg/mL
2. > 50 µg/mL
3. > 125 µg/mL

###

- ASSAY_SUMMARY: Host-cell metabolic activity in Huh 9-13 cells
- Format: cell-based
- EXPERIMENTAL_CONTEXT: human, compound 18 tested starting at 125 µg/mL
Please respond with reported CC50 for every item in the list.

These solved cases illustrate the format of a correct answer.
| COMPOUND_STRING | RECORDED_VALUE |
| --- | --- |
| O=c1ccnc(SCc2cc3cc(Cl)ccc3oc2=O)[nH]1 | > 390 µM |
| O=c1oc2ccc(Cl)cc2cc1CSc1ncnc2c1ncn2[C@@H]1O[C@H](CO)[C@@H](O)[C@H]1O | > 105 µM |

Now take the following compound into account.
Task item: Quick one: CC50 for O=c1oc2ccc(Cl)cc2cc1CSc1ncnc2[nH]cnc12 ?
Reply: > 145 µM

###

Please respond with reported SI (CC50/EC50) for every item in the list.
- System: HCV genotype 1b subgenomic replicon
- ASSAY_SUMMARY: Anti-HCV assay in Huh 5-2 cells (luciferase replicon readout)
- Format: cell-based, hepatitis C virus (HCV)
- EXPERIMENTAL_CONTEXT: Huh 5-2 cells; secondary screen starting at 125 μg/mL

These solved cases illustrate the format of a correct answer.
| COMPOUND | SI (CC50/EC50) |
| --- | --- |
| O=c1oc2ccc(Cl)cc2cc1CSc1ncnc2[nH]cnc12 [Compound 7a] | >76 |
| Nc1ccnc(SCc2cc3cc(Cl)ccc3oc2=O)n1 [Compound 20] | >19 |

Look up SI (CC50/EC50) for the entries below, preserving their order.
1. O=c1ccnc(SCc2cc3cc(Cl)ccc3oc2=O)[nH]1 [Compound 18]
2. O=c1oc2ccc(Cl)cc2cc1CSc1ncnc2c1ncn2[C@@H]1O[C@H](CO)[C@@H](O)[C@H]1O [Compound 7b]
3. Nc1nc(SCc2cc3cc(Cl)ccc3oc2=O)c2nc[nH]c2n1 [Compound 9a]

Reply:
>4.5
>47
>7.3

###

- Tested on: HCV genotype 1b subgenomic replicon
- ASSAY_SUMMARY: Anti-HCV assay in Huh 5-2 cells (luciferase replicon readout)
- Format: cell-based, hepatitis C virus (HCV)
- EXPERIMENTAL_CONTEXT: Huh 5-2 cells; primary screening starting at 50 μg/mL
QUANTITY: SI (CC50/EC50)

Look up SI (CC50/EC50) for the entries below, preserving their order.
1. O=c1oc2ccc(Cl)cc2cc1CSc1ncnc2[nH]cnc12 [Compound 7a]
2. Nc1ncnc2c1nc(SCc1cc3cc(Cl)ccc3oc1=O)n2[C@@H]1O[C@H](CO)[C@@H](O)[C@H]1O [Compound 3b]
3. Nc1nc(SCc2cc3cc(Cl)ccc3oc2=O)c2nc[nH]c2n1 [Compound 9a]
4. Cc1c[nH]c(=O)nc1SCc1cc2cc(Cl)ccc2oc1=O [Compound 11b]
5. Nc1nc(SCc2cc3cc(Cl)ccc3oc2=O)c2ncn([C@@H]3O[C@H](CO)[C@@H](O)[C@H]3O)c2n1 [Compound 9b]
6. Nc1ncnc2[nH]c(SCc3cc4cc(Cl)ccc4oc3=O)nc12 [Compound 3a]
7. O=c1ccnc(SCc2cc3cc(Cl)ccc3oc2=O)[nH]1 [Compound 18]

Reply:
>17
1.5
>2.1
>9.1
>6.9
6.7
>3.2

Look up SI (CC50/EC50) for the entries below, preserving their order.
1. O=c1oc2ccc(Cl)cc2cc1CSc1ccn([C@@H]2O[C@H](CO)[C@@H](O)[C@H]2O)c(=O)n1 [Compound 16a]
2. Nc1nc2[nH]c(SCc3cc4cc(Cl)ccc4oc3=O)nc2c(=O)[nH]1 [Compound 5b]

Reply:
>6.8
>2.6
